# System: NF-κB
# Method Summary: NF-κB assay: THP1-NF-κB-LUC cells, LPS-stimulated secreted luciferase
# Assay type: cell-based
# Test Settings: THP1-NF-κB-LUC cells; compounds 2 hours before LPS (10 ng/mL) for 18 hours; secreted luciferase; read-out: IC50 (NF-κB assay)
Measure: IC50

These solved cases illustrate the format of a correct answer.
1. Cc1cc2c(cc1S(=O)(=O)N(C)c1ccc(Br)cc1)OCC(=O)N2 | > 10000 nM
2. CCc1ccc(NS(=O)(=O)c2cc(Cl)cc3c2OC(CC)C(=O)N3)cc1 (stereo not drawn) | < 100 nM
3. CC(C)CC1Oc2cc(S(=O)(=O)Nc3cccc(Cl)c3)c(Br)cc2NC1=O (stereo not drawn) | 100 to 1000 nM
4. CCC1Oc2cc(S(=O)(=O)Nc3ccc(C(F)(F)F)cc3Cl)c(Br)cc2NC1=O (stereo not drawn) | 1000 to 10000 nM
5. COc1ccc2cc(S(=O)(=O)c3ccc(C)c(Cl)c3)c(=O)oc2c1 | > 10000 nM

IC50 lookup needed for COc1ccc2[nH]cc(S(=O)(=O)c3ccc(C)c(F)c3)c(=O)c2c1 , thanks.
100 to 1000 nM

Another compound: O=C1COc2cc(S(=O)(=O)NCc3ccc(OC(F)(F)F)cc3)c(Br)cc2N1
> 10000 nM
